- Test system: Erythrocyte
- Protocol: Hemolytic activity in human RBC after 1 hr by microplate reader method
- Assay type: ADME, cell-based
Square brackets hold non-standard residues; d marks the D form. Peptide text beside a SMILES is read from it. Bip = N[C@@H](Cc1ccc(-c2ccccc2)cc1)C(=O)O; 2Nal = N[C@@H](Cc1ccc2ccccc2c1)C(=O)O; Aoc = NCCCCCCCC(=O)O; Ahx = NCCCCCC(=O)O
Listing: pEC50 of selected compounds
In simple prose, pEC50 is minus the logarithm base ten of a concentration in moles per litre.

INSERT INTO assay_data (compound, assay_value) VALUES
  ('NCCCC[C@@H]1NC(=O)[C@H](Cc2ccc3ccccc3c2)NC(=O)CCCCCCCNC(=O)[C@H](Cc2ccc(-c3ccccc3)cc2)NC(=O)[C@H](CCCCN)NC(=O)[C@H](CCCCN)NC(=O)[C@H](Cc2ccc3ccccc3c2)NC(=O)[C@H](CCCCN)NC(=O)[C@H](CC(N)=O)NC1=O (cyclo([2Nal]KK[Bip][Aoc][2Nal]KNK))', 4.92);

# next compound below
Incoming: So what does the record say about pEC50 for NCCCC[C@@H]1NC(=O)[C@H](Cc2ccc3ccccc3c2)NC(=O)CCCCCNC(=O)[C@H](Cc2ccc(-c3ccccc3)cc2)NC(=O)[C@H](CCCCN)NC(=O)[C@H](CCCCN)NC(=O)[C@H](Cc2ccc3ccccc3c2)NC(=O)[C@H](CCCCN)NC(=O)[C@H](CC(N)=O)NC1=O (cyclo([2Nal]KK[Bip][Ahx][2Nal]KNK)) ?
Outgoing: 4.74

----------
- Tested on: Lipid bilayer
- Protocol: Binding affinity to DOPE/DOPG large unilamellar vesicles in 3:1 ratio assessed as exciton split measured at 225 nanometer in NaHCO3 buffer
Activity calls are given as the source filed them. The rule behind the calls is not given here. Square brackets hold non-standard residues; d marks the D form. Peptide text beside a SMILES is read from it. Bip = N[C@@H](Cc1ccc(-c2ccccc2)cc1)C(=O)O; 2Nal = N[C@@H](Cc1ccc2ccccc2c1)C(=O)O; AEA = NCCOCC(=O)O; GABA = NCCCC(=O)O
Metric: Activity

INSERT INTO results (compound, metric, assay_value) VALUES
  ('NCCCC[C@@H]1NC(=O)[C@H](Cc2ccc3ccccc3c2)NC(=O)CCCNC(=O)[C@H](Cc2ccc(-c3ccccc3)cc2)NC(=O)[C@H](CCCCN)NC(=O)[C@H](CCCCN)NC(=O)[C@H](Cc2ccc3ccccc3c2)NC(=O)[C@H](CCCCN)NC(=O)[C@H](CC(N)=O)NC1=O (cyclo([2Nal]KK[Bip][GABA][2Nal]KNK))', 'Activity', 'Active'),
  ('NCCCC[C@@H]1NC(=O)[C@H](Cc2ccc3ccccc3c2)NC(=O)COCCNC(=O)[C@H](Cc2ccc(-c3ccccc3)cc2)NC(=O)[C@H](CCCCN)NC(=O)[C@H](CCCCN)NC(=O)[C@H](Cc2ccc3ccccc3c2)NC(=O)[C@H](CCCCN)NC(=O)[C@H](CC(N)=O)NC1=O (cyclo([2Nal]KK[Bip][AEA][2Nal]KNK))', 'Activity', 'Active');

----------
- Test system: Acinetobacter baumannii
- Protocol: Antimicrobial activity against multiple drug resistant-Acinetobacter baumannii ATCC BAA-1605 after 18 hrs by tube microdilution method
- Assay type: functional
- Condition notes: ATCC BAA-1605, 18 h
Square brackets hold non-standard residues; d marks the D form. Peptide text beside a SMILES is read from it. Bip = N[C@@H](Cc1ccc(-c2ccccc2)cc1)C(=O)O; 2Nal = N[C@@H](Cc1ccc2ccccc2c1)C(=O)O
Metric: MIC (µM)
Please state the figure in µM; there is no need to write the unit.

INSERT INTO measurements (molecule, unit_of_measurement, assay_value) VALUES
  ('NCCCC[C@@H]1NC(=O)[C@H](CCCCN)NC(=O)[C@H](Cc2ccc3ccccc3c2)NC(=O)[C@H](CCCCN)NC(=O)[C@@H](CC(N)=O)NC(=O)[C@H](CCCCN)NC(=O)[C@H](Cc2ccc3ccccc3c2)NC(=O)CCCCCCCCCNC(=O)[C@H](Cc2ccc(-c3ccccc3)cc2)NC1=O', 'µM', 16);

Read the next record carefully.
Incoming: Which MIC reading was recorded for the molecule NCCCC[C@@H]1NC(=O)[C@H](Cc2ccc3ccccc3c2)NC(=O)CNC(=O)[C@H](Cc2ccc(-c3ccccc3)cc2)NC(=O)[C@H](CCCCN)NC(=O)[C@H](CCCCN)NC(=O)[C@H](Cc2ccc3ccccc3c2)NC(=O)[C@H](CCCCN)NC(=O)[C@H](CC(N)=O)NC1=O (cyclo([2Nal]KK[Bip]G[2Nal]KNK)) ?
Outgoing: 32
